Measured pEC50, listed per entry.
Target: Human M4 (Homo sapiens)
Construct: expressed in transfected cells
Experiment: mAChR M4 cell-based functional assay (calcium flux, potentiation of EC20 acetylcholine response), hM4-Gqi5 CHO-K1 cells
Conditions: Table 3; potentiation of EC20 acetylcholine response, calcium flux, CHO-K1 cells; read-out: Human M4 EC50
Method: […] Calcium flux was measured using the Functional Drug Screening System (FDSS) 6000 or 7000 (Hamamatsu Corporation, Tokyo, Japan) as an increase in the fluorescent static ratio. […] Agonist activity was analyzed as a concentration-dependent increase in calcium mobilization upon compound addition. Positive allosteric modulator activity was analyzed as a concentration-dependent increase in the EC20 acetylcholine response. […]
pEC50: −log10 of the molar value.

molecular string	test target	pEC50
Cc1c(N2CCc3ncc(-c4cccnc4C(F)(F)F)cc3C2)nn2cnnc2c1C	Human M4 (Homo sapiens)	5.45
Cc1c(N2CCc3ncc(Oc4ccc(F)cc4F)cc3C2)nn2c(C(F)(F)F)nnc2c1C	Human M4 (Homo sapiens)	6.67
Cc1c(N2CCc3ncc(C(=O)N4CCCC4)cc3C2)nn2c(C(F)(F)F)nnc2c1C	Human M4 (Homo sapiens)	5.19
Cc1c(N2CCc3ncc(O)cc3C2)nn2cnnc2c1C	Human M4 (Homo sapiens)	5.86

====

Target: Human M4 (Homo sapiens)
Construct: expressed in transfected cells
Assay: mAChR M4 cell-based functional assay (calcium flux, potentiation of EC20 acetylcholine response), hM4-Gqi5 CHO-K1 cells
Conditions: CHO-K1; % ACh maximum at 30 μM; human M4; read-out: Emax

molecular string	value units	Emax at 30 µM
Cc1c(N2CCc3ncc(Nc4cc(F)cc(F)c4F)cc3C2)nn2c(C(F)(F)F)nnc2c1C	%	106
Cc1c(N2CCc3ncc(Nc4cccc(F)c4F)cc3C2)nn2cnnc2c1C	%	82
Cc1c(N2CCc3ncc(C(=O)N4CCOCC4)cc3C2)nn2cnnc2c1C	%	51

====

Target: Human M4 (Homo sapiens, UniProt P08173)
Construct: expressed in transfected cells
Sequence (P08173 whole entry): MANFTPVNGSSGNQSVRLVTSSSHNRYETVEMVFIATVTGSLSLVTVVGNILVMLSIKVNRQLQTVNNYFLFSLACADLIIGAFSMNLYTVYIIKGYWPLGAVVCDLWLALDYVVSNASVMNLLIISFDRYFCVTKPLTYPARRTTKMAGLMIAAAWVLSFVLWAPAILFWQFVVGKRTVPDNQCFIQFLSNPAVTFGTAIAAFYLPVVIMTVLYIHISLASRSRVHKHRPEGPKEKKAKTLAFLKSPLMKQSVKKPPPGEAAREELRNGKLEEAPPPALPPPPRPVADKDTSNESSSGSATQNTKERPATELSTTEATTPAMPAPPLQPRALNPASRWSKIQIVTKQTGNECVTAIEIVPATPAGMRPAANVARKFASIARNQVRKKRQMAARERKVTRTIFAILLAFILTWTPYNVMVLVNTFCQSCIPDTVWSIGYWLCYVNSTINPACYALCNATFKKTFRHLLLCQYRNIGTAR
Assay: mAChR M4 cell-based functional assay (calcium flux, potentiation of EC20 acetylcholine response), hM4-Gqi5 CHO-K1 cells
Conditions: hM4-Gqi5 CHO-K1 cells, calcium flux, PAM of EC20 acetylcholine; read-out: Human M4 EC50
pEC50: −log10 of the molar value.
measurement name: pEC50

molecular string	number
Cc1cc2nccn2nc1N1CCc2ncc(-c3c(C)noc3C)cc2C1	6.63
COc1ccc(Nc2cnc3c(c2)CN(c2nn4cnnc4c(C)c2C)CC3)c(F)c1	6.64
Cc1c(N2CCc3ncc(Nc4ncccc4F)cc3C2)nn2cnnc2c1C	6.75
Cc1ccccc1Nc1cnc2c(c1)CN(c1nn3cnnc3c(C)c1C)CC2	7.06
Cc1c(N2CCc3ncc(NC(=O)C4COC4)cc3C2)nn2cnnc2c1C	5.23
Cc1c(N2CCc3ncc(-c4cnn(Cc5ccccc5)c4)cc3C2)nn2cnnc2c1C	6.58
Cc1cc2nncn2nc1N1CCc2ncc(-c3ccnn3C)cc2C1	6.24
Cc1cc2nncn2nc1N1CCc2ncc(-c3ccn(C)n3)cc2C1	6.15

====

Target: Human M4 (Homo sapiens)
Construct: expressed in transfected cells
Test: mAChR M4 cell-based functional assay (calcium flux, potentiation of EC20 acetylcholine response), hM4-Gqi5 CHO-K1 cells
Conditions: Table 3; potentiation of EC20 acetylcholine response, calcium flux, CHO-K1 cells; read-out: Human M4 EC50
Note: every record was labeled by where its EC50 sits among lower range (below 400 nM), middle range (400 nM to below 1000 nM), upper range (1000 nM or more)

molecule	category label
Cc1c(N2CCc3ncc(Nc4nn(C)c5ccccc45)cc3C2)nn2cnnc2c1C	middle range
Cc1c(N2CCc3ncc(-c4cccnc4OC(C)C)cc3C2)nn2cnnc2c1C	upper range
Cc1c(N2CCc3ncc(-c4ccn(C)n4)cc3C2)nn2c(C(F)(F)F)nnc2c1C	middle range
Cc1c(N2CCc3ncc(Oc4cccc(F)c4)cc3C2)nn2cnnc2c1C	lower range
Cc1cc(Nc2cnc3c(c2)CN(c2nn4cnnc4c(C)c2C)CC3)n(C(C)C)n1	upper range
Cc1c(N2CCc3ncc(-c4cnn(C5CCCCC5)c4)cc3C2)nn2c(C(F)(F)F)nnc2c1C	upper range
Cc1ccccc1C(=O)Nc1cnc2c(c1)CN(c1nn3cnnc3c(C)c1C)CC2	upper range
Cc1c(N2CCc3ncc(-c4cnn(Cc5ccccc5)c4)cc3C2)nn2c(C(F)(F)F)nnc2c1C	upper range
COC1CCN(c2cnc3c(c2)CN(c2nn4c(C(F)(F)F)nnc4cc2C)CC3)C1 (stereo not drawn)	upper range
Cc1c(N2CCc3ncc(OCC4CC4)cc3C2)nn2cnnc2c1C	lower range
Cc1c(N2CCc3ncc(-c4ccc(N5CCOCC5)nc4)cc3C2)nn2cnnc2c1C	lower range
COC1CCN(c2cnc3c(c2)CN(c2nn4c(C(F)(F)F)nnc4c(C)c2C)CC3)C1 (stereo not drawn)	middle range
COc1cnc(Cl)c(-c2cnc3c(c2)CN(c2nn4c(C(F)(F)F)nnc4c(C)c2C)CC3)c1	middle range
Cc1c(N2CCc3ncc(-c4ccc(-n5cccn5)nc4)cc3C2)nn2cnnc2c1C	lower range
